# Protocol Text: in vitro
# Type: cell-based
# Condition Summary: mouse; fresh blood of CD-1 female mice; 25° C., two hours; highest drug concentration that did not lyse the red blood cells; tested 0.39 to 400 μg/ml in 5 percent dextrose; read-out: minimum lytic concentration (MLC)
Starred links: 1 amine or outer side, 2 acyl side, 3 side chain; linkers in the order of their positions; H or OH if unused. Positions of bridges follow the written chain, without caps; N, C: chain ends. Non-standard residues stand in square brackets, D forms with d. Residues, ends and D or L forms follow the SMILES beside them. ξ: configuration not given here. *: point of attachment. ξOrn(4,5-diOH) = O=C(C(CC(O)C(O)N[*:3])N[*:1])[*:2]; ξhTyr(βξ-OH,γξ-OH) = NC(C(=O)O)C(O)C(O)c1ccc(O)cc1; ξPro(3ξ-OH,4ξ-Me) = CC1CNC(C(=O)O)C1O; X2 = NC(=O)CC(O)C(N[*:1])C(=O)[*:2]; X1 = CCC(C)CC(C)CCCCCCCCC(=O)*; Hyp = O=C(O)[CH]1C[CH](O)CN1
Readout Label: MNTC at 2 h
Answer as a quantity: numeral, then unit.

Lab note: CCC(C)CC(C)CCCCCCCCC(=O)NC1CC(O)C(O)NC(=O)C2C(O)C(C)CN2C(=O)C(C(O)CC(N)=O)NC(=O)C(C(O)C(O)c2ccc(O)cc2)NC(=O)C2CC(O)CN2C(=O)C(C(C)O)NC1=O (stereo not drawn) [Compound I] (X1-[ξOrn(4,5-diOH)]T[Hyp][ξhTyr(βξ-OH,γξ-OH)][X2][ξPro(3ξ-OH,4ξ-Me)]; lactam 1-C; configuration not given here) gave MNTC at 2 h of 400 µg/mL

Source of measurements: patent US4931352A
